Test system: HepG2-TP53BP1-CLTA
test.description: phenotypically active (imaging signature differs from DMSO and reproducible) at any of 0.3-9 uM (binary (1 = active, 0 = inactive)); higher = active
recorded.conditions: treatment time: 24 h
Structures can show the parent of a compound that is named as a salt.
measured.property: phenotypically active
When you answer, write just the number.

[Q] Which phenotypically active is reported for this compound? `NCCCC[C@H](N[C@@H](CCc1ccccc1)C(=O)O)C(=O)N1CCC[C@H]1C(=O)O`
[A] 0

[Q] Which phenotypically active is reported for this compound? CCc1cccc2c3c([nH]c12)C(CC)(CC(=O)O)OCC3 (stereo not drawn)
[A] 0

[Q] Which phenotypically active is reported for this compound? `Cc1[nH]c(=O)c(C#N)cc1-c1ccncc1`
[A] 0

[Q] Which phenotypically active is reported for this compound? `O=C(O)[C@]1(Cc2cccc(Nc3nccs3)n2)CC[C@@H](Oc2cccc(Cl)c2F)CC1`
[A] 1

[Q] Which phenotypically active is reported for this compound? `Cc1ccc(NC(=O)c2ccc(CN3CCN(C)CC3)cc2)cc1Nc1nc(-c2cccnc2)cs1`
[A] 1

[Q] Which phenotypically active is reported for this compound? `Cc1ccc([N+](=O)[O-])cc1S(=O)(=O)N(C)C`
[A] 0

[Q] Which phenotypically active is reported for this compound? NC(=O)OCC(COC(N)=O)c1ccccc1 [felbamate]
[A] 0

[Q] Which phenotypically active is reported for this compound? `O=C(Cn1ccnc1[N+](=O)[O-])NCc1ccccc1`
[A] 0

[Q] Which phenotypically active is reported for this compound? `O=C(/C=C\c1ccc(O)c(O)c1)O[C@H]1C[C@](OC(=O)/C=C/c2ccc(O)c(O)c2)(C(=O)O)C[C@H](O)[C@H]1O`
[A] 0

[Q] Which phenotypically active is reported for this compound? `CCOC(=O)C1=C[C@]2(CC)CCCN3CCc4c(n1c1ccccc41)[C@@H]32`
[A] 0

[Q] Which phenotypically active is reported for this compound? `CCN1CCN(c2ccc(Nc3cc(N(C)C(=O)Nc4c(Cl)c(OC)cc(OC)c4Cl)ncn3)cc2)CC1`
[A] 0

[Q] Which phenotypically active is reported for this compound? `CC(=O)OCC[N+](C)(C)C`
[A] 0

[Q] Which phenotypically active is reported for this compound? `CCCCCCCCCCCCCCCC[n+]1ccn(Cc2ccccc2)c1C`
[A] 1

[Q] Which phenotypically active is reported for this compound? `CCCOc1ccc(CCc2nc3cc(-c4c(C)noc4C)ccc3n2CCN2CCOCC2)cc1`
[A] 1

[Q] Which phenotypically active is reported for this compound? `COc1ccc(CCc2nc3cc(-c4c(C)noc4C)ccc3n2C[C@H](C)N2CCOCC2)cc1Cl`
[A] 1

[Q] Which phenotypically active is reported for this compound? CC[C@H](CO)Nc1nc(Nc2cccc(-c3ccccn3)c2)c2ncn(C(C)C)c2n1 [(R)-DRF053 dihydrochloride]
[A] 1

[Q] Which phenotypically active is reported for this compound? `Cc1nc(Nc2ncc(C(=O)Nc3c(C)cccc3Cl)s2)cc(N2CCN(CCO)CC2)n1`
[A] 1

[Q] Which phenotypically active is reported for this compound? `Cc1cc(C(C)(C)C)c(O)c(C)c1CC1=NCCN1`
[A] 0

[Q] Which phenotypically active is reported for this compound? `COc1cc2c(cc1NS(=O)(=O)c1ccc(Br)cc1C)n(C)c(=O)n2C`
[A] 0

[Q] Which phenotypically active is reported for this compound? CCN(CC)C(C)CN1c2ccccc2Sc2ccccc21 (stereo not drawn)
[A] 0

[Q] Which phenotypically active is reported for this compound? C[N+](C)(C)CCCCCC[N+](C)(C)C [Hexamethonium bromide]
[A] 0

[Q] Which phenotypically active is reported for this compound? `O=c1ncccn1[C@@H]1O[C@H](CO)[C@@H](O)[C@H]1O`
[A] 0

[Q] Which phenotypically active is reported for this compound? CCCCCCC(=O)OC1CC(C)(C)NC(C)(C)C1 [TMPH hydrochloride]
[A] 0

[Q] Which phenotypically active is reported for this compound? Cc1ccccc1N1C(=O)c2cc(S(N)(=O)=O)c(Cl)cc2NC1C (stereo not drawn)
[A] 0

[Q] Which phenotypically active is reported for this compound? `O=C(O)c1cc(/N=N/c2ccc(O)c(C(=O)O)c2)ccc1O`
[A] 0

[Q] Which phenotypically active is reported for this compound? `COc1ccc([C@@H]2Sc3ccccc3N(CCN(C)C)C(=O)[C@@H]2OC(C)=O)cc1`
[A] 0

[Q] Which phenotypically active is reported for this compound? `COCc1c(C(C)C)nc(C(C)C)c(/C=C/[C@@H](O)C[C@@H](O)CC(=O)O)c1-c1ccc(F)cc1`
[A] 1

[Q] Which phenotypically active is reported for this compound? `CCCCc1nc(Cl)c(CO)n1Cc1ccc(-c2ccccc2-c2nnn[nH]2)cc1`
[A] 0

[Q] Which phenotypically active is reported for this compound? `CCc1cc(-c2n[nH]c(C)c2-c2ccc3c(c2)OCCO3)c(O)cc1O`
[A] 1

[Q] Which phenotypically active is reported for this compound? `NC(=O)C(c1ccccc1)(c1ccccc1)[C@@H]1CCN(CCc2ccc3c(c2)CCO3)C1`
[A] 1

[Q] Which phenotypically active is reported for this compound? `CC[C@H](C)C(=O)O[C@H]1C[C@H](O)C=C2C=C[C@H](C)[C@H](CC[C@@H](O)C[C@@H](O)CC(=O)O)[C@H]21`
[A] 0

[Q] Which phenotypically active is reported for this compound? CC1(C(=O)O)CCC2(C)CCC3(C)C(=CC(=O)C4C5(C)CCC(OC6OC(C(=O)O)C(O)C(O)C6OC6OC(C(=O)O)C(O)C(O)C6O)C(C)(C)C5CCC43C)C2C1 (stereo not drawn)
[A] 0

[Q] Which phenotypically active is reported for this compound? C[C@@H]1C[C@H]2[C@@H]3CCC4=CC(=O)C=C[C@]4(C)[C@@]3(Cl)[C@@H](O)C[C@]2(C)[C@@]1(OC(=O)c1ccco1)C(=O)CCl [mometasone furoate]
[A] 0
